Could you please report measured pIC50 for the items listed next?
target: human TRPA1 (Homo sapiens); construct: expressed in transfected cells; host or cells: CHO cells; assay: FLIPR Tetra calcium influx assay, CHO cells expressing TRPA1, cinnamaldehyde agonist (hTRPA1 CHO Ca2+ AUC EVO); assay type: cell-based; settings: Table 3; read-out: hTRPA1 (IC50)
Sequence (O75762 whole entry): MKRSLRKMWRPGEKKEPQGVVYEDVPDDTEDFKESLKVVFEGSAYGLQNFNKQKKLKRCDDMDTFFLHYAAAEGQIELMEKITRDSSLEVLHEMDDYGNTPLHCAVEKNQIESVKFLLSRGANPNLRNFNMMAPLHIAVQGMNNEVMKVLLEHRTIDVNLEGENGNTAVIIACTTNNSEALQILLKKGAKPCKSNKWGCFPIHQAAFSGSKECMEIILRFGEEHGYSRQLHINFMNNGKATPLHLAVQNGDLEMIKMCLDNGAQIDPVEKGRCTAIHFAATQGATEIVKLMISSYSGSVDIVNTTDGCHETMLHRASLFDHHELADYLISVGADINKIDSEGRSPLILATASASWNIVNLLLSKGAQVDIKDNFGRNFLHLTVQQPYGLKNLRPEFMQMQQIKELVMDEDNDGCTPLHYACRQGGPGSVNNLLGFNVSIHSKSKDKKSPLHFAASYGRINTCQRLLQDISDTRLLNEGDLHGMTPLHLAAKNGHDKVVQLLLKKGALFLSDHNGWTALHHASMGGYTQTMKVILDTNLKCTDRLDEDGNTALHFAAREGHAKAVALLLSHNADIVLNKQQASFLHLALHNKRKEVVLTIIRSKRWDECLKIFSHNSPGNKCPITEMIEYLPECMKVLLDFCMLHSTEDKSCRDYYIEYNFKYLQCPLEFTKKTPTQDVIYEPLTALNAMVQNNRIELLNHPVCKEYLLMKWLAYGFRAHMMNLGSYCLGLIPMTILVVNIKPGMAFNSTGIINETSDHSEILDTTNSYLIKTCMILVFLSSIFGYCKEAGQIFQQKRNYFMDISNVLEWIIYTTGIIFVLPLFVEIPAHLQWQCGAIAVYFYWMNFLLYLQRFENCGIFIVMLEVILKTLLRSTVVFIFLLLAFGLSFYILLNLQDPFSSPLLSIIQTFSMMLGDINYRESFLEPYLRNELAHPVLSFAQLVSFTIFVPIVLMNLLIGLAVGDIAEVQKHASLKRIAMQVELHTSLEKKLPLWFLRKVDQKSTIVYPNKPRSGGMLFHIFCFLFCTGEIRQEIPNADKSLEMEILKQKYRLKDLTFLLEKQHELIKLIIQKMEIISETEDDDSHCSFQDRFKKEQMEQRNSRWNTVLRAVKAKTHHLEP
Answers are plain numbers, as −log10 of the molar value.

A selection of reference data follows.
C[C@H]1[C@H](F)C[C@@H](C(=O)NCc2cc(-c3cnc(C(F)(F)F)nc3)ncc2C(F)(F)F)N1S(=O)(=O)c1ccc(F)cn1 (single isomer, unassigned) [Pyridyl Sulfonamide 1]    8.10
C[C@H]1[C@H](F)C[C@@H](C(=O)NCc2cc(-c3cnc(C(F)(F)F)nc3)cnc2C(F)F)N1S(=O)(=O)c1ccc(F)cn1 (single isomer, unassigned) [Pyridyl Sulfonamide 3]    6.48

Let us examine a further case.
// query Provide measured pIC50 on human TRPA1 (Homo sapiens) for C[C@H]1[C@H](F)C[C@@H](C(=O)NCc2cc(-c3cnc(C(F)(F)F)nc3)ncc2F)N1S(=O)(=O)c1ccc(F)cn1 (single isomer, unassigned) [Pyridyl Sulfonamide 2] please.
// result 6.39
